Sourced from patent US20120316071A1

# tgt: T1, rHuman CD44/Fc Chimera, CF (human, UniProt P16070 21-220)
# T1 construct: Bought from R&D Systems; not shown: Fc of the bought chimera
# protocolNotes: ECL Multispot (MSD) assay; antigen spotted on plate, Fab in solution;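 further: fab bound 1 h at 20 °C, detected by TAG-labelled antibody electrochemiluminescence, signal relative to each well's blank, ratio of 4 or more marks a hit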
resultType: ECL signal
Lab note: jot down the number only; don't add units.

binder: Fab VH1-46_IGHD6-6*01_IGHJ1*01 S102A/S103P/S104F/H111F (APFF) & L6_IGKJ1*01 S28P (Fab, V domains shown, Fab made in E. coli; the variable domains were cloned into Plasmid A (CH1, His and Flag tags) and Plasmid C (kappa CL); also called APFF / S28P) VH: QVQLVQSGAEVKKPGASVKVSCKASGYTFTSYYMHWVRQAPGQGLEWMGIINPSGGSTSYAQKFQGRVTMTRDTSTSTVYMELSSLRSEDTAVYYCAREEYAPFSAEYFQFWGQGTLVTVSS VL: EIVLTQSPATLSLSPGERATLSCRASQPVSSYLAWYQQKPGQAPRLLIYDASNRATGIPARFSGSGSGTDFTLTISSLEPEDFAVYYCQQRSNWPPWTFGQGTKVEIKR
val: 365

I'd like to know its ECL signal. The binder in question is Fab VH1-46_IGHD6-6*01_IGHJ1*01 S102A/S103P/S104F/H111F (APFF) & L6_IGKJ1*01 S28Q (Fab, V domains shown, Fab made in E. coli; the variable domains were cloned into Plasmid A (CH1, His and Flag tags) and Plasmid C (kappa CL); also called APFF / S28Q) VH: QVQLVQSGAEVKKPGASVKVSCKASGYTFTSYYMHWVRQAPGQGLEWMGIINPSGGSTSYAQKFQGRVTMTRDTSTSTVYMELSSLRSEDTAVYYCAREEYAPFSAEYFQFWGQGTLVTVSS VL: EIVLTQSPATLSLSPGERATLSCRASQQVSSYLAWYQQKPGQAPRLLIYDASNRATGIPARFSGSGSGTDFTLTISSLEPEDFAVYYCQQRSNWPPWTFGQGTKVEIKR
420

Fill in: ECL signal of Fab VH1-46_IGHD6-6*01_IGHJ1*01 S102A/S103P/S104F/H111F (APFF) & L6_IGKJ1*01 S28V (Fab, V domains shown, Fab made in E. coli; the variable domains were cloned into Plasmid A (CH1, His and Flag tags) and Plasmid C (kappa CL); also called APFF / S28V) VH: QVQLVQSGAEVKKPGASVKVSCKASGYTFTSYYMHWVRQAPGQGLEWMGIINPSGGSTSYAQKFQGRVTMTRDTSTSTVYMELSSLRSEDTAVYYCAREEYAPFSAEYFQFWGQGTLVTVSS VL: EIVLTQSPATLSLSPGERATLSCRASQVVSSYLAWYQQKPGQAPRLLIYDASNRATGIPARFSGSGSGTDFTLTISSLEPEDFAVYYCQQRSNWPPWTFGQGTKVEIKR is ___
380
